Ki reference
Molecular target: D(2) dopamine receptor (Homo sapiens, UniProt P14416)
Sequence (P14416 whole entry): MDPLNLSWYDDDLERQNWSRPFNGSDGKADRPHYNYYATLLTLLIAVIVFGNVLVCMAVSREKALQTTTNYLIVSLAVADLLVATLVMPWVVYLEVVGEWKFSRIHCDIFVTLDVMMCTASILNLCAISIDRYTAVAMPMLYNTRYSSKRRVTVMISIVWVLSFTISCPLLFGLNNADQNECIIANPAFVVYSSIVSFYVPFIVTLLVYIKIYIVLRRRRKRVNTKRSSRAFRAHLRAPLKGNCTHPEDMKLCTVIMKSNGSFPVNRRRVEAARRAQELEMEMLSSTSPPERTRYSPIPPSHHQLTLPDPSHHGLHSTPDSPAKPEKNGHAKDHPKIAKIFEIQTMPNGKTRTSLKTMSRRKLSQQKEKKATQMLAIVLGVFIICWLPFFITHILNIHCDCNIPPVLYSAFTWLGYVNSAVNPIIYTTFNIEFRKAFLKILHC
Test: Binding affinity against cloned human Dopamine receptor D2 (long) using [125I]iodosulpiride as radioligand
Write it as a number; the unit µM goes unstated.

Query string: # return recorded Ki for input "COc1cc2ccccc2cc1OCCC1CCN(Cc2ccccc2)CC1"
Result string: 1.58

Query string: Please list Ki recorded for the compound "COc1cc2ccccc2cc1C(=O)OCC1CCN(Cc2ccccc2)CC1"
Result string: 3.16

Query string: Return Ki for the following compound: "COc1cc2ccccc2cc1OC(=O)CC1CCN(Cc2ccccc2)CC1"
Result string: 7.94
